src = patent US20240279318A1

Molecular target: T1, AFP158/HLA-A*02:01 complex (human)
T1 construct: flowed as analyte in SPR
Test: SPR, fold vs AS170036 VL1VH1;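 also: crude scFv muteins immobilised on a sensor chip, peptide–MHC complex passed over at several concentrations, binding then buffer-driven dissociation, KD estimated from on- and off-rates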
measuredParameter: Affinity increase (fold)

binder	quantitativeReadout
AS170036 VL1VH1-56N98F (scFv, also called 04-AS170036 VL1VH1-56N98F) scFv: QSALTQPRSVSGSPGQSVTISCAGTSSDVGSENYVSWYQQHPGKAPKLMIYQVNKRASGVPDRFSGSKSGNTASLTISGLQAEDEADYYCASYRSSDFNIVFGGGTKLTVLGGGGSGGGGSGGGGSEVQLVESGGGLVQPGGSLRLSCAASGFTFSSYAMSWVRQAPGKGLEWVSTINSGTNSPYYADSVKGRFTISRDNSKNTLYLQMNSLRAEDTAVYYCAKNFFDGSWFLGPPAMDYWGQGTLVTVSSHHHHHH	8.2
AS170036 VL1VH1-57H98Q (scFv, also called 09-AS170036 VL1VH1-57H98Q) scFv: QSALTQPRSVSGSPGQSVTISCAGTSSDVGSENYVSWYQQHPGKAPKLMIYQVNKRASGVPDRFSGSKSGNTASLTISGLQAEDEADYYCASYRSSDQNIVFGGGTKLTVLGGGGSGGGGSGGGGSEVQLVESGGGLVQPGGSLRLSCAASGFTFSSYAMSWVRQAPGKGLEWVSTINSGTGHPYYADSVKGRFTISRDNSKNTLYLQMNSLRAEDTAVYYCAKNFFDGSWFLGPPAMDYWGQGTLVTVSSHHHHHH	24.8
AS170036 VL1VH1-56N98Q (scFv, also called 06-AS170036 VL1VH1-56N98Q) scFv: QSALTQPRSVSGSPGQSVTISCAGTSSDVGSENYVSWYQQHPGKAPKLMIYQVNKRASGVPDRFSGSKSGNTASLTISGLQAEDEADYYCASYRSSDQNIVFGGGTKLTVLGGGGSGGGGSGGGGSEVQLVESGGGLVQPGGSLRLSCAASGFTFSSYAMSWVRQAPGKGLEWVSTINSGTNSPYYADSVKGRFTISRDNSKNTLYLQMNSLRAEDTAVYYCAKNFFDGSWFLGPPAMDYWGQGTLVTVSSHHHHHH	9.7
AS170036 VL1VH1-98I108S (scFv, also called 36-AS170036 VL1VH1-98I108S) scFv: QSALTQPRSVSGSPGQSVTISCAGTSSDVGSENYVSWYQQHPGKAPKLMIYQVNKRASGVPDRFSGSKSGNTASLTISGLQAEDEADYYCASYRSSDINIVFGGGTKLTVLGGGGSGGGGSGGGGSEVQLVESGGGLVQPGGSLRLSCAASGFTFSSYAMSWVRQAPGKGLEWVSTINSGTGSPYYADSVKGRFTISRDNSKNTLYLQMNSLRAEDTAVYYCAKNFFDGSWFLSPPAMDYWGQGTLVTVSSHHHHHH	7.7
AS170036 VL1VH1-57M108D (scFv, also called 29-AS170036 VL1VH1-57M108D) scFv: QSALTQPRSVSGSPGQSVTISCAGTSSDVGSENYVSWYQQHPGKAPKLMIYQVNKRASGVPDRFSGSKSGNTASLTISGLQAEDEADYYCASYRSSDHNIVFGGGTKLTVLGGGGSGGGGSGGGGSEVQLVESGGGLVQPGGSLRLSCAASGFTFSSYAMSWVRQAPGKGLEWVSTINSGTGMPYYADSVKGRFTISRDNSKNTLYLQMNSLRAEDTAVYYCAKNFFDGSWFLDPPAMDYWGQGTLVTVSSHHHHHH	11.8
AS170036 VL1VH1-56N108D (scFv, also called 20-AS170036 VL1VH1-56N108D) scFv: QSALTQPRSVSGSPGQSVTISCAGTSSDVGSENYVSWYQQHPGKAPKLMIYQVNKRASGVPDRFSGSKSGNTASLTISGLQAEDEADYYCASYRSSDHNIVFGGGTKLTVLGGGGSGGGGSGGGGSEVQLVESGGGLVQPGGSLRLSCAASGFTFSSYAMSWVRQAPGKGLEWVSTINSGTNSPYYADSVKGRFTISRDNSKNTLYLQMNSLRAEDTAVYYCAKNFFDGSWFLDPPAMDYWGQGTLVTVSSHHHHHH	13.2
AS170036 VL1VH1-56Y108S (scFv, also called 18-AS170036 VL1VH1-56Y108S) scFv: QSALTQPRSVSGSPGQSVTISCAGTSSDVGSENYVSWYQQHPGKAPKLMIYQVNKRASGVPDRFSGSKSGNTASLTISGLQAEDEADYYCASYRSSDHNIVFGGGTKLTVLGGGGSGGGGSGGGGSEVQLVESGGGLVQPGGSLRLSCAASGFTFSSYAMSWVRQAPGKGLEWVSTINSGTYSPYYADSVKGRFTISRDNSKNTLYLQMNSLRAEDTAVYYCAKNFFDGSWFLSPPAMDYWGQGTLVTVSSHHHHHH	19.2
AS170036 VL1VH1-56N108A (scFv, also called 19-AS170036 VL1VH1-56N108A) scFv: QSALTQPRSVSGSPGQSVTISCAGTSSDVGSENYVSWYQQHPGKAPKLMIYQVNKRASGVPDRFSGSKSGNTASLTISGLQAEDEADYYCASYRSSDHNIVFGGGTKLTVLGGGGSGGGGSGGGGSEVQLVESGGGLVQPGGSLRLSCAASGFTFSSYAMSWVRQAPGKGLEWVSTINSGTNSPYYADSVKGRFTISRDNSKNTLYLQMNSLRAEDTAVYYCAKNFFDGSWFLAPPAMDYWGQGTLVTVSSHHHHHH	14.9
